- test.protocol: Cmax in Sprague-Dawley rat at 7 mg/kg, po
- Format: ADME, organism-based
- Parameters: dose 7 mg/kg, route oral
- condition.parameters: in vivo
Below, each of the compounds is paired with its reported Cmax value.
A number alone suffices; assume µM.

>  <smiles.str>
CCCCN1CCN(S(=O)(=O)NCCc2nc(-c3cccs3)[nH]c2-c2ccc(OC)cc2)CC1

>  <result.units>
µM

>  <Cmax>
1.7

$$$$

Now, please, on to the next compound.
If you can, please state the reported Cmax value of CCCCCc1ccc(S(=O)(=O)NCCc2nc(-c3cccs3)[nH]c2-c2ccc(OC)cc2)cc1 .
0.6

====

- test.protocol: AUC in Sprague-Dawley rat at 7 mg/kg, po
- Format: ADME, organism-based
- Parameters: dose 7 mg/kg, route oral
- condition.parameters: plasma
measurement.name: AUC (µM·h)
A number alone suffices; assume µM·h.

If you can, please state the reported AUC value of CCCCN1CCN(S(=O)(=O)NCCc2nc(-c3cccs3)[nH]c2-c2ccc(OC)cc2)CC1 .
4.4

====

- assay.system: Polyunsaturated fatty acid 5-lipoxygenase (Homo sapiens)
- Sequence (whole entry): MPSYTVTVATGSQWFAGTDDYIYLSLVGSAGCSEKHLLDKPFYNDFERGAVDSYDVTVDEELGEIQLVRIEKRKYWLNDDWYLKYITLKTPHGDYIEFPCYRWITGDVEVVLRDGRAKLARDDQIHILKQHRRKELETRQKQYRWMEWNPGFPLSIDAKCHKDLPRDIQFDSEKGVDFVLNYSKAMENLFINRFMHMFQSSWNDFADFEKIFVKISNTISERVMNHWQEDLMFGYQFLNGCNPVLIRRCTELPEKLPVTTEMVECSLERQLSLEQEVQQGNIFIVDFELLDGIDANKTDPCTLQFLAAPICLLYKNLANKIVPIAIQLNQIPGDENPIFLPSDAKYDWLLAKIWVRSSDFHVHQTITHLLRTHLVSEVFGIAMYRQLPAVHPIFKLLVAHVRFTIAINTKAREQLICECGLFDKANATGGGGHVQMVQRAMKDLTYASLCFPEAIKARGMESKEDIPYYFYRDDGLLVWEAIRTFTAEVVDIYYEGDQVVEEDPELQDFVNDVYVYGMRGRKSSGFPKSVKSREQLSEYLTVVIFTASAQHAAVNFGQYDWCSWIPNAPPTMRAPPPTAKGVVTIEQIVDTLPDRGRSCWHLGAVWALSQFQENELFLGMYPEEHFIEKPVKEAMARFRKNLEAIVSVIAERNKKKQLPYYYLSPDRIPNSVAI
- test.protocol: Inhibition of human 5-lipoxygenase at 10 uM
measurement.name: inhibition
Mention the unit after the number when you answer.

Here's what some known entries look like.
>  <smiles.str>
CCCCCc1ccc(S(=O)(=O)NCCc2nc(-c3cccs3)[nH]c2-c2ccc(OC)cc2)cc1

>  <assay.system>
Polyunsaturated fatty acid 5-lipoxygenase (Homo sapiens)

>  <inhibition>
41%

$$$$
>  <smiles.str>
CCCCCc1ccc(S(=O)(=O)NCCc2nc(-c3ccccc3)[nH]c2-c2ccc(F)cc2)cc1

>  <assay.system>
Polyunsaturated fatty acid 5-lipoxygenase (Homo sapiens)

>  <inhibition>
45%

$$$$
>  <smiles.str>
CCCCCc1ccc(S(=O)(=O)NCCc2nc(-c3ccccc3)[nH]c2-c2ccccc2)cc1

>  <assay.system>
Polyunsaturated fatty acid 5-lipoxygenase (Homo sapiens)

>  <inhibition>
39%

$$$$

Now, please, on to the next molecule.
Record lookup: for Polyunsaturated fatty acid 5-lipoxygenase (Homo sapiens), what inhibition belongs to COc1ccc(-c2[nH]c(-c3cccs3)nc2CCNS(=O)(=O)N(C)[C@@H]2CCN(Cc3ccc(Cl)c(Cl)c3)C2)cc1 ?
67%

====

- assay.system: Polyunsaturated fatty acid lipoxygenase ALOX15B (Homo sapiens)
- Sequence (whole entry): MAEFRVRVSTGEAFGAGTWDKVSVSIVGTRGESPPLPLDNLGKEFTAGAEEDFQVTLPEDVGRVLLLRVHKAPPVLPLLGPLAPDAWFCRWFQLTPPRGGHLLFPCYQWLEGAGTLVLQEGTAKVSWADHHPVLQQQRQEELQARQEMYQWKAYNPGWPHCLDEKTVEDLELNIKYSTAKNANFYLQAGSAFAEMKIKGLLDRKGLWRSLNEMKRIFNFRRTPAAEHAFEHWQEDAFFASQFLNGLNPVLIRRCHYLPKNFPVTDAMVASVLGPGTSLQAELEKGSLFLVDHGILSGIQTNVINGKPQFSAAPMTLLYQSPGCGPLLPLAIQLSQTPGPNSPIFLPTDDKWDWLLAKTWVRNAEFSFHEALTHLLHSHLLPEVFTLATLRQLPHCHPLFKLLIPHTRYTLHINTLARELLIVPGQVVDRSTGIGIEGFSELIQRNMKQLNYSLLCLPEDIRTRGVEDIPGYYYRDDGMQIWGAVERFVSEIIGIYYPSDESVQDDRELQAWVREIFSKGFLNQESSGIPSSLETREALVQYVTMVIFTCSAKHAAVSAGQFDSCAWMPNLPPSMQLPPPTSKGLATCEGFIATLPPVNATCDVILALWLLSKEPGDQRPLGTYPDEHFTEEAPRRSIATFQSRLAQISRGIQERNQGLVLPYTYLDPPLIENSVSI
- test.protocol: Inhibition of human recombinant 15-lipoxygenase over-expressed in CHO cells at 10 uM
- Format: cell-based
measurement.name: inhibition (%)
A number alone suffices; assume %.

Here's what some known entries look like.
>  <compound>
CCN([C@@H]1CCN(C(C)c2ccc(F)cc2)C1)S(=O)(=O)NCCc1nc(-c2cccs2)[nH]c1-c1ccc(OC)cc1 (some centres undefined)

>  <assay.system>
Polyunsaturated fatty acid lipoxygenase ALOX15B (Homo sapiens)

>  <inhibition [%]>
96

$$$$
>  <compound>
COc1ccc(-c2[nH]c(-c3cccs3)nc2CCNS(=O)(=O)N2CCN(c3ccc(Cl)c(Cl)c3)CC2)cc1

>  <assay.system>
Polyunsaturated fatty acid lipoxygenase ALOX15B (Homo sapiens)

>  <inhibition [%]>
84

$$$$
>  <compound>
CCCCCc1ccc(S(=O)(=O)NCCc2nc(-c3cccs3)[nH]c2-c2ccc(OC)cc2)cc1

>  <assay.system>
Polyunsaturated fatty acid lipoxygenase ALOX15B (Homo sapiens)

>  <inhibition [%]>
98

$$$$

Now, please, on to the next compound.
If you can, please state the reported inhibition value of CCCCCc1ccc(S(=O)(=O)NCCc2nc(-c3ccccc3)[nH]c2-c2ccc(OC)cc2)cc1 .
83

====

- assay.system: Polyunsaturated fatty acid lipoxygenase ALOX15 (Oryctolagus cuniculus)
- Sequence (P12530 whole entry): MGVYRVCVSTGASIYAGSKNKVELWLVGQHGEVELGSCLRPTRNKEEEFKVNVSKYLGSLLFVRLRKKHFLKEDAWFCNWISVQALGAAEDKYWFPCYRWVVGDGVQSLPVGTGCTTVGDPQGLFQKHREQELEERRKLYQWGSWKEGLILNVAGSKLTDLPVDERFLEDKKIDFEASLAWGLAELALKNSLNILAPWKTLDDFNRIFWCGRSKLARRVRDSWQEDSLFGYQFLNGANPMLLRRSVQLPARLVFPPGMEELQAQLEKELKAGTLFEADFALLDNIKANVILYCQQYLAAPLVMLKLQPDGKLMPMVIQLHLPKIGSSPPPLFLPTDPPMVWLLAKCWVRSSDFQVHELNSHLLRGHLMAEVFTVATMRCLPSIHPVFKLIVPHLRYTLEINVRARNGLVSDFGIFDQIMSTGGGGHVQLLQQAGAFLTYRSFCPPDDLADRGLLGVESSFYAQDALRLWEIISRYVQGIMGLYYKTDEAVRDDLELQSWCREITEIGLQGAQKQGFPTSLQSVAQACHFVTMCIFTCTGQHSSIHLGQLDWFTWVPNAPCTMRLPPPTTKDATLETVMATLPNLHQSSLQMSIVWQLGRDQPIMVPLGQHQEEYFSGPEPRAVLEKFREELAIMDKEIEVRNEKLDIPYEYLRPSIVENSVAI
- test.protocol: Inhibition of rabbit 15-lipoxygenase in presence of arachidonic acid
measurement.name: pIC50
Field pIC50 (float): negative decimal logarithm of the concentration in molar.

>  <smiles.str>
COc1ccc(-c2[nH]c(-c3cccs3)nc2CCNS(=O)(=O)N2CCN(c3ccccc3Cl)CC2)cc1

>  <measurement.name>
pIC50

>  <readout.number>
6.88

$$$$

If you can, please state the reported pIC50 value of CCCCCc1ccc(S(=O)(=O)NCCc2nc(-c3ccccc3)[nH]c2-c2ccccc2)cc1 .
6.79

If you can, please state the reported pIC50 value of CCN([C@@H]1CCN(C(C)(C)c2ccccc2)C1)S(=O)(=O)NCCc1nc(-c2cccs2)[nH]c1-c1ccc(OC)cc1 .
6.88

If you can, please state the reported pIC50 value of CCCCCc1ccc(S(=O)(=O)NCCc2nc(-c3ccc(Cl)cc3)[nH]c2-c2ccc(OC)cc2)cc1 .
5.96

Origin of measurements: ChEMBL document CHEMBL1149679
